- tested-on: Salmonella enterica LT2 α-D-glucopyranosyl phosphate thymidylyltransferase (Ep) (Salmonella typhimurium, UniProt P26393)
- Construct: made in house; host or cells: E. coli (E. coli-prfbA-C)
- assay-info: Ep-catalyzed conversion of α-D-hexopyranosyl phosphates and NTP to NDP-sugars, HPLC (FIG. 2)
- Format: biochemical
- run-parameters: 5 mM NTP, 10 mM sugar phosphate, 30 min, 37° C.
experimental-endpoint: activity as Ep substrate with TTP

compound	experimental-endpoint	experimental-result
O=P([O-])([O-])O[C@H]1O[C@H](CO)[C@H](O)[C@@H](O)[C@@H]1O.[Na+].[Na+] [compound 51, Disodium α-D-idopyranosyl Phosphate]	activity as Ep substrate with TTP	less activity
O=P([O-])([O-])O[C@H]1O[C@H](CO)[C@H](O)[C@H](O)[C@@H]1O.[Na+].[Na+] [compound 55, Disodium α-D-talopyranosyl Phosphate]	activity as Ep substrate with TTP	less activity
O=P([O-])([O-])O[C@H]1O[C@H](CO)[C@@H](O)[C@@H](O)[C@H]1O.[Na+].[Na+] [compound 38, Disodium α-D-allopyranosyl Phosphate]	activity as Ep substrate with TTP	less activity

###

- tested-on: wild-type Ep (Salmonella typhimurium, UniProt P26393)
- Construct: made in house; host or cells: E. coli (E. coli-prfbA-C)
- assay-info: Conversion of sugar phosphates by wild-type enzyme (FIG. 11)
- Format: biochemical, Salmonella enterica LT2

compound	acceptance / conversion by wild-type Ep
CC(=O)N[C@H]1[C@@H](OP(=O)(O)O)O[C@H](CO)[C@@H](O)[C@@H]1O [compound 108, reference compound]	poor conversion
O=P([O-])([O-])O[C@H]1O[C@H](CO)[C@@H](O)[C@@H](O)[C@H]1O.[Na+].[Na+] [compound 38, Disodium α-D-allopyranosyl Phosphate]	poor conversion

###

- tested-on: Salmonella enterica LT2 α-D-glucopyranosyl phosphate thymidylyltransferase (Ep) (Salmonella typhimurium, UniProt P26393)
- Construct: made in house; host or cells: E. coli (E. coli-prfbA-C)
- assay-info: Ep-catalyzed conversion of α-D-hexopyranosyl phosphates and NTP to NDP-sugars, HPLC (FIG. 2)
- Format: biochemical
- run-parameters: 5 mM NTP, 10 mM sugar phosphate, 30 min, 37° C.

entry-smiles	activity as Ep substrate with TTP
O=P([O-])([O-])O[C@H]1O[C@H](CO)C[C@H](O)[C@H]1O.[Na+].[Na+]	prefers
O=P([O-])([O-])O[C@@H]1C[C@@H](O)[C@H](O)[C@@H](CO)O1.[Na+].[Na+]	prefers

###

- tested-on: Salmonella enterica LT2 α-D-glucopyranosyl phosphate thymidylyltransferase (Ep) (Salmonella typhimurium, UniProt P26393)
- Construct: made in house; host or cells: E. coli (E. coli-prfbA-C)
- assay-info: Ep-catalyzed conversion of aminodeoxy/acetamidodeoxy sugar phosphates with inorganic pyrophosphatase, HPLC (FIG. 4)
- Format: biochemical
- run-parameters: 2.5 mM NTP, 5.0 mM sugar phosphate, 10 U inorganic pyrophosphatase, 30 min, 37° C.
- Method: To evaluate the synthetic utility of thymidylyl-transferase, purified Ep, α-D-glucopyranosyl phosphate, Mg^+2, NTP and inorganic pyrophosphatase were incubated at 37° C. for 30 min and the extent of product formation determined by HPLC. The inorganic pyrophosphatase was included to drive the reaction forward. […]
experimental-endpoint: product formation with dTTP

> print(dat)
                               entry.smiles        experimental.endpoint  experimental.result
1  N[C@@H]1[C@@H](O)[C@@H](OP(=O)([O-])[O-])O[C@H](CO)[C@H]1O.[Na+].[Na+]  product formation with dTTP  little or no effect
2  CC(=O)NC[C@H]1O[C@H](OP(=O)([O-])[O-])[C@H](O)[C@@H](O)[C@@H]1O.[Na+].[Na+]  product formation with dTTP        less activity
3  CC(=O)N[C@H]1[C@H](O)[C@@H](O)[C@@H](OP(=O)([O-])[O-])O[C@@H]1CO.[Na+].[Na+]  product formation with dTTP        less activity
4  N[C@H]1[C@H](O)[C@@H](O)[C@@H](OP(=O)([O-])[O-])O[C@@H]1CO.[Na+].[Na+]  product formation with dTTP  little or no effect

###

- tested-on: Salmonella enterica LT2 α-D-glucopyranosyl phosphate thymidylyltransferase (Ep) (Salmonella typhimurium, UniProt P26393)
- Construct: made in house; host or cells: E. coli (E. coli-prfbA-C)
- assay-info: Ep-catalyzed conversion of aminodeoxy/acetamidodeoxy sugar phosphates with inorganic pyrophosphatase, HPLC (FIG. 4)
- Type: biochemical
- run-parameters: 2.5 mM NTP, 5.0 mM sugar phosphate, 10 U inorganic pyrophosphatase, 30 min, 37° C.
experimental-endpoint: product formation with dTTP

> print(dat)
                                   compound  experimental.result
1  NC[C@H]1O[C@H](OP(=O)([O-])[O-])[C@H](O)[C@@H](O)[C@@H]1O.[Na+].[Na+]  little or no effect
2  N[C@H]1[C@@H](OP(=O)(O)O)O[C@H](CO)[C@@H](O)[C@@H]1O [compound 107, reference compound]  little or no effect
